biological target: Sigma non-opioid intracellular receptor 1 (Homo sapiens, UniProt Q99720); assay: Ray2010 Assay 74
Sequence (Q99720 whole entry): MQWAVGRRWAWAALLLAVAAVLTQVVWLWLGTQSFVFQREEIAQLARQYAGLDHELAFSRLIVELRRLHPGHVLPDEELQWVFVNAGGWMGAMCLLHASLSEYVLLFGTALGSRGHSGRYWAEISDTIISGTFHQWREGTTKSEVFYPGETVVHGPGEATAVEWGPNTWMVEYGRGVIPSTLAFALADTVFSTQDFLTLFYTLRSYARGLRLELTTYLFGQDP
pKi: −log10 of the molar value.
RESULT_TYPE: pKi

Provide measured pKi value, entry: COc1cc(CC(C)N)c(OC)cc1C (stereo not given) < 5.00

Using known records, supply pKi for `COc1ccc2[nH]cc(CCN(C)C)c2c1` < 5.00

Give the reported value of pKi for this record: `COc1ccc2[nH]cc(CCN(C)C(C)C)c2c1` < 5.00

Return pKi for the following molecule: `NCCc1c2c(c(Br)c3c1OCC3)OCC2` < 5.00

Fill in pKi for record `COc1cc(CCN)c(OC)cc1Br` < 5.00

---

Below are Ki values measured for 5-hydroxytryptamine receptor 1B (Homo sapiens, UniProt P28222).
Provide the reading as a plain figure in nM.

Would you please give the reported Ki of CCSc1cc(OC)c(CCN)cc1OC [2C-T-2] with 5-hydroxytryptamine receptor 1B (Homo sapiens, UniProt P28222)? 858

Report Ki under test system 5-hydroxytryptamine receptor 1B (Homo sapiens, UniProt P28222) for CCCN(CCC)CCc1c[nH]c2ccccc12 [dpt] . 854

State recorded Ki with 5-hydroxytryptamine receptor 1B (Homo sapiens, UniProt P28222), entry COc1cc(CC(C)N)c(OC)cc1Br (stereo not drawn) , no comment. 941

---

Molecular target: Alpha-1A adrenergic receptor (Homo sapiens, UniProt P35348)
Sequence (P35348 whole entry): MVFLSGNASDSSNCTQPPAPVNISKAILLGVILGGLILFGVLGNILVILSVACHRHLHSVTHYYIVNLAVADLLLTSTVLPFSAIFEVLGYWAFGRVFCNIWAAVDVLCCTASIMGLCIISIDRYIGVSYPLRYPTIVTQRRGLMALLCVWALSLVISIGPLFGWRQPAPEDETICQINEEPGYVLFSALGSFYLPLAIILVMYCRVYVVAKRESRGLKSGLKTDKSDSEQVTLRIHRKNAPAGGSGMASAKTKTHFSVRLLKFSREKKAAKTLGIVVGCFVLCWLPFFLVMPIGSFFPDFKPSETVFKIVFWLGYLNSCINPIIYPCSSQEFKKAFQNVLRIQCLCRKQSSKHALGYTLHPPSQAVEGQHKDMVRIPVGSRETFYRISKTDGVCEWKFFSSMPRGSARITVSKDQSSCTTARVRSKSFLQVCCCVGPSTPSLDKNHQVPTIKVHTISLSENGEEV
I'd appreciate it if you could supply Ki values for the items below.

Supply Ki measured with Alpha-1A adrenergic receptor (Homo sapiens, UniProt P35348) for `NCCc1c2c(c(Br)c3c1OCC3)OCC2` . > 10 µM

// fetch Ki; item: CNC(C)Cc1ccc2c(c1)OCO2 (configuration not stated) ; system: Alpha-1A adrenergic receptor (Homo sapiens, UniProt P35348) > 10 µM

GET Ki where system = Alpha-1A adrenergic receptor (Homo sapiens, UniProt P35348) and item = COc1cc(OC)c(OC)cc1CC(C)N (configuration not stated) > 10 µM

Please report the measured Ki for C[C@@H]1C[C@@H](C)N1C(=O)C1C=C2c3cccc4[nH]cc(c34)C[C@H]2N(C)C1 (some centres not stated) [rr-2b] tested on Alpha-1A adrenergic receptor (Homo sapiens, UniProt P35348). 5.19 µM

Please report Ki with Alpha-1A adrenergic receptor (Homo sapiens, UniProt P35348) for item `CN(C)CCc1c[nH]c2cc(F)ccc12` . 0.173 µM

Please report Ki with Alpha-1A adrenergic receptor (Homo sapiens, UniProt P35348) for item `COC(=O)[C@@H]1C[C@H](OC(C)=O)C(=O)[C@H]2[C@@]1(C)CC[C@H]1C(=O)O[C@H](c3ccoc3)C[C@]21C` . > 10 µM

Write down the reported Ki (system: Alpha-1A adrenergic receptor (Homo sapiens, UniProt P35348)) of `CN(C)CCc1c[nH]c2ccccc12` 1.75 µM

Specify the recorded Ki for C[C@@H]1C[C@H](C)N1C(=O)C1C=C2c3cccc4[nH]cc(c34)C[C@H]2N(C)C1 (stereo partly drawn) [cis-2a] , system: Alpha-1A adrenergic receptor (Homo sapiens, UniProt P35348). 0.529 µM

Specify the recorded Ki for CN(C)CCc1c[nH]c2cccc(O)c12 [4-hydroxy-N,N-dimethyltryptamine] , system: Alpha-1A adrenergic receptor (Homo sapiens, UniProt P35348). > 10 µM

Print Alpha-1A adrenergic receptor (Homo sapiens, UniProt P35348) Ki for `COc1ccc2[nH]cc(CCN(C)C)c2c1` . > 10 µM

Give Ki for this entry on Alpha-1A adrenergic receptor (Homo sapiens, UniProt P35348): COc1cc(CC(C)N)c(OC)cc1Br (configuration not stated) > 10 µM

Write Ki of CCSc1cc(OC)c(CC(C)N)cc1OC (configuration not stated) ; system used: Alpha-1A adrenergic receptor (Homo sapiens, UniProt P35348) > 10 µM

Fill in: Ki on Alpha-1A adrenergic receptor (Homo sapiens, UniProt P35348), entry `COc1cc(CCN)c(OC)cc1Br` > 10 µM

State the measured Ki (Alpha-1A adrenergic receptor (Homo sapiens, UniProt P35348)) of CCc1cc(OC)c(CC(C)N)cc1OC (configuration not stated) > 10 µM

Fill: Ki (Alpha-1A adrenergic receptor (Homo sapiens, UniProt P35348)) for this compound `CCCN(CCC)CCc1c[nH]c2ccccc12` 0.881 µM

Check Alpha-1A adrenergic receptor (Homo sapiens, UniProt P35348) data and give Ki for COc1cc(CC(C)N)cc(OC)c1OC (configuration not stated) . > 10 µM

Look up Alpha-1A adrenergic receptor (Homo sapiens, UniProt P35348) data: Ki of `COc1cc(CCN)cc(OC)c1OC` , then report it. > 10 µM

Under Alpha-1A adrenergic receptor (Homo sapiens, UniProt P35348): report Ki of CCN(CC)C(=O)[C@@H]1C=C2c3cccc4[nH]cc(c34)C[C@H]2N(C)C1 [[N-methyl-3H]LSD] . 1.13 µM

State Ki on Alpha-1A adrenergic receptor (Homo sapiens, UniProt P35348). Entry: `COc1ccc2[nH]cc(CCN(C)C(C)C)c2c1` > 10 µM

GET Ki where system = Alpha-1A adrenergic receptor (Homo sapiens, UniProt P35348) and item = `CCc1cc(OC)c(CCN)cc1OC` > 10 µM

Provide Alpha-1A adrenergic receptor (Homo sapiens, UniProt P35348) Ki reading for `CCSc1cc(OC)c(CCN)cc1OC` . > 10 µM

Give Ki; test system Alpha-1A adrenergic receptor (Homo sapiens, UniProt P35348); compound C[C@@H]1C[C@@H](C)N1C(=O)C1C=C2c3cccc4[nH]cc(c34)C[C@H]2N(C)C1 (some centres not stated) [ss-2c] 0.85 µM

Reference source for all entries: BindingDB's records for PubMed 20126400
